system: Mus musculus; assay: Anti-inflammatory activity in TPA-induced mouse ear edema model assessed as inhibition of ear edema at 1 umol/ear; type: functional
result type: inhibition (INH) (%)
// note: answer is a bare numeric in %

COc1c(C(C)C)cc(C)c2ccc(C)cc12 15.32
CC1=CC[C@H](C(C)C)c2cc(C(=O)O)ccc21 12.93
CC1=C2CCC(C(=O)O)=C[C@@H]2[C@@H](C(C)C)CC1 21.51

Consider the record given below.
For reference, reported inhibition (INH) for Cc1cc2c(C(C)C)ccc(C=O)c2cc1O stands at 43.14

----------
tested on: Mus musculus; assay: Anti-inflammatory activity in TPA-induced mouse ear edema model assessed as inhibition of ear edema at 1 umol/ear; assay type: functional
Calls of active or inactive are those of the source. No cut-off for these calls is given here.
result type: inhibition

Cc1ccc2c(c1)C(=O)C(C(C)C)=C[C@@]2(C)O Active
CC1=C[C@](O)(C(C)C)C(=O)c2cc(C)c(O)cc21 Active
CC(C)[C@H]1CC[C@@](C)(O)c2ccc(C(=O)O)cc21 Active
